The measurements presented in this section are drawn from patent US10815230B2.

assay: Pharmacokinetics in male CD-1 mice; format: in vivo; details: mouse; PO 3 mg/kg, plasma, male CD-1 mice
Parameter: half-life

Prompt: Which value of half-life has been reported for "CNc1c(C(N)=O)c2ccccn2c1C(=O)c1ccc(F)cc1" in the records?
Response: 29.4 min

---

Assay: Pharmacokinetics in male CD-1 mice
Type: in vivo
Conditions: mouse; IV 3 mg/kg, plasma, male CD-1 mice; predicted
Description: Six groups of male CD-1 mice of approximately 25-35 g (about 8 weeks of age) were dosed with Comparative compound 324 and Compound A intravenously (IV) (in 10% DMSO:90% Hydroxypropyl-β-cyclodextrin (20% aq. w/v)) or orally (PO) (in 0.5% w/v methylcelluose (aq.) according to the regimen shown in Table 6. Intravenous doses was administered into a tail vein at a constant dose volume of 5 mL/kg to achieve a dose level of 3 mg/kg. […]
Parameter: AUC(0-inf) (ng·h/mL)
Please respond with the number in ng·h/mL and leave the unit unwritten.

Nc1ncc(-c2nc3ccccc3o2)c(-c2ccncc2)n1 : 309

Lab note: next compound to report on.
Prompt: // query AUC(0-inf) value for entry "CNc1c(C(N)=O)c2ccccn2c1C(=O)c1ccc(F)cc1"
Response: 499
